Test: NCI Yeast Anticancer Drug Screen. Data for the mlh1 strain (AID 171);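 further: 0% = growth of vehicle-treated control cultures of the same strain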
Settings: S. cerevisiae mlh1 strain growth inhibition; at 100.0 µM
Experimental: Growth inhibition of yeast strains with defined genetic alterations is measured as a screen for potential anti-cancer activity. Selected strains with alterations in DNA damage repair or cell cycle control were exposed to compounds and growth inhibition was measured relative to vehicle treated controls. The strain used in this assay is mlh1
About 79,000 compounds went through this panel and 15% of them were active in at least one assay; those are over-represented in the sample as a whole. Activity calls are given as the source filed them. No stated cut-off is given here; in the data, active means growth inhibition above about 70%; inactive means the rest.
Your reply should match one of these outcome classes. 1.0 = active, 0.0 = inactive

## Task Status in this test for N/C(=N\OC(=O)NC(Cl)=C(Cl)Cl)c1cc(C(F)(F)F)cc(C(F)(F)F)c1 ?
## Result 1.0

## Task Status in this test for CC(C)C1=CCC2C(=C1)CCC1C(C)(C(=O)O)CCCC21C (stereo not given) (tested in a mixture with another compound) ?
## Result 1.0

## Task Status in this test for Cc1cc(S(=O)(=O)/N=C(/NN)NNc2cccc(C(F)(F)F)n2)c(S)cc1Cl ?
## Result 0.0

## Task Status in this test for COc1ccc2c(c1)C(=O)c1ccccc1C2 ?
## Result 0.0

## Task Status in this test for CN(Cc1cnc2nc(N)nc(N)c2n1)c1ccc(C(=O)N[C@@H](CCC(=O)O)C(=O)O)cc1 ?
## Result 0.0

## Task Status in this test for Oc1c(Br)cc(Br)cc1C1CCCCC1 ?
## Result 1.0

## Task Status in this test for N#Cc1c(N)[nH]c2ccc(Sc3ccccc3)cc12 ?
## Result 1.0

## Task Status in this test for Fc1ccc(NC(=S)SCc2ccc3c(c2)OCO3)cc1F ?
## Result 1.0

## Task Status in this test for C=C1CC(Cn2cc(Br)c(=O)[nH]c2=O)(c2ccc(-c3ccccc3)cc2)OC1=O (stereo not given) ?
## Result 1.0

## Task Status in this test for O=C(O)C1CCCCC1c1c2ccc(=O)c(O)c-2oc2c(O)c(O)ccc12 (stereo not given) ?
## Result 1.0
